# TARGET ENTITY: hCAR (Homo sapiens, UniProt Q14994)
# Sequence (Q14994 1-348 isoform Q14994-2): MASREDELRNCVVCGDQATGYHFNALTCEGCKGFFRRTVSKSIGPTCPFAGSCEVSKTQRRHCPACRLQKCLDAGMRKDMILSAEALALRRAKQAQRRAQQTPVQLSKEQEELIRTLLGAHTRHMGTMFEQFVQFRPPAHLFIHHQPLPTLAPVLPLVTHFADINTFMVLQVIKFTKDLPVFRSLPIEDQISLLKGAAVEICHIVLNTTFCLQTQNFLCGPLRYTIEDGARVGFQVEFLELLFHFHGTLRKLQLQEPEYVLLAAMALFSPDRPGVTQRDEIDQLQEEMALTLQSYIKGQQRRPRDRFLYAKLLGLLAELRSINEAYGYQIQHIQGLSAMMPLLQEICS
# Sequence (P19793 1-462 partner): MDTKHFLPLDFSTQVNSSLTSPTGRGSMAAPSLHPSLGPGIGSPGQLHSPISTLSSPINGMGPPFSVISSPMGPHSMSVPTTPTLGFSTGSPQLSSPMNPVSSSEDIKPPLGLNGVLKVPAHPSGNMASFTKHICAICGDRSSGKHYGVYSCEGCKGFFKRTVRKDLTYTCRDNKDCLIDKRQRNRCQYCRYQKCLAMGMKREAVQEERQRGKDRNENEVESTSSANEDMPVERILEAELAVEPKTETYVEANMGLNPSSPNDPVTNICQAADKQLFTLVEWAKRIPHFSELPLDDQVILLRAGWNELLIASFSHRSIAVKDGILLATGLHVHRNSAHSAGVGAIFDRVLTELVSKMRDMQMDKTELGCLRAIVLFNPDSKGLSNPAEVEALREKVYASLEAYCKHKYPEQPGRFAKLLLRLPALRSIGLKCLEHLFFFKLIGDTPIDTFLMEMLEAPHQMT
# ASSAY COMMENT: hCAR agonist luciferase reporter gene assay
# Assay type: cell-based
# COND: hCAR EC50 vs parent compound 2
ATTRIBUTE MEASURED: fold decrease in potency (EC50) compared to compound 2 (fold)
# output: bare number, implied unit fold

Worked cases, fold decrease in potency (EC50) compared to compound 2 given:
{"columns": ["TEST SMILES", "TARGET ENTITY", "UNIT INFO", "MEASURED RESULT"],
 "data": [
  ["Clc1ccc(-c2nc3occn3c2CNCCc2ccc(Cl)c(Cl)c2)cc1", "hCAR (Homo sapiens, UniProt Q14994)", "fold", 3.2],
  ["Clc1ccc(-c2nc3ncccn3c2CNCCc2ccc(Cl)c(Cl)c2)cc1", "hCAR (Homo sapiens, UniProt Q14994)", "fold", 2],
  ["Cc1cn2c(CNCCc3ccc(Cl)c(Cl)c3)c(-c3ccc(Cl)cc3)nc2s1", "hCAR (Homo sapiens, UniProt Q14994)", "fold", 5.5],
  ["Clc1ccc(CCNCc2c(-c3ccc(Cl)cc3)nc3sccn23)cc1", "hCAR (Homo sapiens, UniProt Q14994)", "fold", 1.6],
  ["Clc1cccc(-c2nc3sccn3c2CNCCc2ccc(Cl)c(Cl)c2)c1", "hCAR (Homo sapiens, UniProt Q14994)", "fold", 2.3]
]}

What value of fold decrease in potency (EC50) compared to compound 2 has been reported for the following compound? `Clc1ccc(-c2nc3sccn3c2CNCCc2cccc(Cl)c2)cc1`
7

Sample `Clc1ccc(CCNCc2c(-c3ccc4ccccc4c3)nc3sccn23)cc1Cl` — what was its fold decrease in potency (EC50) compared to compound 2?
3

Reference source for all entries: paper PMC6718324
